Data provenance is PubChem BioAssay AID588692.

# assay: D54 reporter luminescence gain compounds – D54 ERlucT cells, set 2, N-linked glycosylation inhibitor project, primary screen (AID 588692);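 also: luciferase carries N-glycosylation sites so blocking glycosylation raises the light; 0% = median of neutral control wells and 100% = median of 100 nM tunicamycin wells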
# conditions: D54 ERlucT glycosylation luciferase reporter, 24 h; at 12.5 µM; percent of 100 nM tunicamycin response
Screen size: about 360,000 compounds; about 830 (0.23%) were called active.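 The calls were made as follows: active = mean luciferase reporter signal, scaled so untreated is 0 and the glycosylation-blocking control 100, at or above a set limit in every replicate; inconclusive = mean reaches the limit but not every replicate does; inactive = mean below the limit.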 Only a selection was taken, and actives are over-represented in it overall.
Log the outcome using a class from active, inactive

Study these solved cases before continuing.
- molecule: "O=C(O)CC(Cc1ccccc1)C(=O)Nc1ccc([N+](=O)[O-])cc1 (stereo unspecified)"
  discreteLabel: "inactive"
- molecule: "Cc1cccc(S(=O)(=O)N2CN(CC3CCCO3)c3nc4ccccc4nc32)c1 (stereo unspecified)"
  discreteLabel: "inactive"
- molecule: "CC(Sc1nncs1)C(=O)NCc1ccc2c(c1)OCO2 (stereo unspecified)"
  discreteLabel: "inactive"
- molecule: "Cc1ccc2nc(-c3ccncc3)cc(C(=O)Nc3ccncc3)c2c1"
  discreteLabel: "active"
- molecule: "COc1ccc(CNC(=O)C[C@H]2C[C@H](C(=O)N3CCOCC3)[C@@]3(C)c4[nH]c5cc(CCC(=O)N(C)C)ccc5c4CCN3C2=O)cc1OC"
  discreteLabel: "inactive"
- molecule: "CN1CCN(Cc2nc3c(c(=O)n(C)c(=O)n3C)n2Cc2cccc3ccccc23)CC1"
  discreteLabel: "inactive"

Assay outcome for Cc1cc(C)c2nc(SCC(=O)N(C)C3CCS(=O)(=O)C3)cc(C)c2c1 (stereo unspecified) : what was it?
inactive

Assay outcome for COc1cccc(C(=O)N2CCC(n3nccc3NC(=O)C3CCOC3)CC2)c1 (stereo unspecified) : what was it?
inactive

Assay outcome for CC(C)C[C@H](NC(=O)NCCc1ccc(Cl)cc1)C(=O)O : what was it?
inactive

Assay outcome for O=C(NCCCn1ccnc1)c1cc(-c2ccccc2)on1 : what was it?
active

Assay outcome for Cc1ccc(C)c(NC(=O)C2Cc3ccccc3CN2C(=O)OCc2ccccc2)c1 (stereo unspecified) : what was it?
inactive

----------
# assay: D54 reporter luminescence gain compounds – D54 ERlucT cells, set 2, N-linked glycosylation inhibitor project, primary screen (AID 588692);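 also: luciferase carries N-glycosylation sites so blocking glycosylation raises the light; 0% = median of neutral control wells and 100% = median of 100 nM tunicamycin wells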
# conditions: D54 ERlucT glycosylation luciferase reporter, 24 h; at 12.5 µM; percent of 100 nM tunicamycin response
The whole screen tested about 360,000 compounds, of which about 830 (0.23%) were called active.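 How the source made its calls: active means mean luciferase reporter signal, scaled so untreated is 0 and the glycosylation-blocking control 100, at or above a set limit in every replicate; inconclusive means mean reaches the limit but not every replicate does; inactive means mean below the limit.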 For the sample, actives were picked, then their nearest neighbours and some compounds at random.
Log the outcome using a class from active, inactive

Study these solved cases before continuing.
- compound: "CC(C)(Oc1ccc(C2CC2(Cl)Cl)cc1)C(=O)O (configuration not stated)"
  discreteLabel: "inactive"
- compound: "C=CCn1c(SCC(=O)NCC2CCCO2)nc2sc(C)c(C)c2c1=O (configuration not stated)"
  discreteLabel: "inactive"
- compound: "Cc1cc2oc(=O)cc(CN(C)Cc3ccccc3)c2cc1Cl"
  discreteLabel: "inactive"

Assay outcome for CC(C)OCCCNC(=S)N1CCC(C(=O)c2ccc3c(c2)OCCO3)CC1 : what was it?
inactive

----------
# assay: D54 reporter luminescence gain compounds – D54 ERlucT cells, set 2, N-linked glycosylation inhibitor project, primary screen (AID 588692);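 also: luciferase carries N-glycosylation sites so blocking glycosylation raises the light; 0% = median of neutral control wells and 100% = median of 100 nM tunicamycin wells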
# conditions: D54 ERlucT glycosylation luciferase reporter, 24 h; at 12.5 µM; active compounds read high; percent of 100 nM tunicamycin response
The whole screen tested about 360,000 compounds, of which about 830 (0.23%) were called active. The list comes from a sample in which actives are over-represented; it also holds close analogues and randomly drawn compounds.
measuredQuantity: reporter increase (%)
// units = %; emit number, no label

Here is how some compounds turned out for reporter increase.
- compound: "Cc1cc(Cl)ccc1N1C(=O)CC(SCCC(=O)O)C1=O (stereo unspecified)"
  reporter increase / %: 1.84
- compound: "COCCCNC(=O)c1cccc2c(-c3ccc(O)c(OC)c3)coc12"
  reporter increase / %: 31.5
- compound: "COc1ccc(-c2coc3c(C(=O)NC(C)C)cccc23)c(C)c1"
  reporter increase / %: -2.53
- compound: "COCCCNC(=O)c1ccc(-c2c(C)noc2C)c2ccoc12"
  reporter increase / %: 19.8
- compound: "COc1cc(N/C=C2\\CC(=O)NC(C)=C2C#N)cc(OC)c1OC"
  reporter increase / %: 0.911

Next:
Identify measured reporter increase associated with O=C1C2C3C=CC(C3)C2C(=O)N1c1ccc(S(=O)(=O)Nc2nccs2)cc1 (stereo unspecified)
-0.133
